# ASSAY_OVERVIEW: Pharmacokinetic properties in SD rats after single intravenous injection and oral administration
# Format: in vivo
# EXPERIMENTAL_PARAMETERS: rat, plasma; Intravenous injection, 1 mg/kg, SD male rats
Please mark label 1 if the recorded AUC(0-inf) is equal to or greater than 400 ng·h/mL, and label 0 if it falls below.

Study these solved cases before continuing.
C[C@@H](COCCC(=O)N1CCN(c2ncc(C(F)(F)F)cn2)CC1)Nc1cn[nH]c(=O)c1C(F)(F)F [RBN-2397, reference compound] ... label 0
O=C(CC[C@@H]1CCCN1c1cc(C(F)(F)F)c(=O)[nH]n1)N1CCN(c2ncc(C(F)(F)F)cn2)CC1 ... label 1
O=C(CC[C@@H]1C[C@@H](F)CN1c1cc(C(F)(F)F)c(=O)[nH]n1)N1CCN(c2ncc(C(F)(F)F)cn2)CC1 ... label 1
O=C(COC[C@@H]1CCCN1c1cc(C(F)(F)F)c(=O)[nH]n1)N1CCN(c2ncc(C(F)(F)F)cn2)CC1 ... label 0

Then there is this compound:
Exercise: Could you verify whether the entry "O=C(CC[C@@H]1C[C@@H](Oc2ccccc2)CN1c1cc(C(F)(F)F)c(=O)[nH]n1)N1CCN(c2ncc(C(F)(F)F)cn2)CC1" shows AUC(0-inf) of no less than 400 ng·h/mL?
Solution: label 1
